From: ChEMBL document CHEMBL5303573

# test.description: The drug is tested on Bifidobacterium ruminantium strain: fecal isolate for biotransformation. The drug concentrations were measured before and after a 12-h incubation by liquid-chromatography-coupled mass spectrometry (LC–MS)
# condition.label: 2 µM
assay.metric: Bacterial Biotransformation

CN(C)CCC=C1c2ccccc2COc2ccccc21 [DOXEPIN] ... Compound NOT metabolized
COc1ccc(C(CN(C)C)C2(O)CCCCC2)cc1 (stereo not drawn) ... Compound NOT metabolized
COc1ccc([C@@H]2Sc3ccccc3N(CCN(C)C)C(=O)[C@@H]2OC(C)=O)cc1 ... Compound NOT metabolized

###

# test.description: The drug is tested on Enterococcus faecalis strain: V583 for biotransformation. The drug concentrations were measured before and after a 12-h incubation by liquid-chromatography-coupled mass spectrometry (LC–MS)
# condition.label: 2 µM
assay.metric: Bacterial Biotransformation

Use these answered entries as a reference point.
CCN(C)C(=O)Oc1cccc([C@H](C)N(C)C)c1.O=C(O)C(O)C(O)C(=O)O [RIVASTIGMINE TARTRATE] ... Compound NOT metabolized
COc1cc2c(c(OC)c1OC)-c1ccc(OC)c(=O)cc1[C@@H](NC(C)=O)CC2 ... Compound NOT metabolized
CCN(CC)CCNC(=O)c1ccc(NC(C)=O)cc1 [ACECAINIDE] ... Compound NOT metabolized
CCN(CC)CCNC(=O)c1cc(Cl)c(N)cc1OC [METOCLOPRAMIDE] ... Compound NOT metabolized
CCN(CC)C(C)CN1c2ccccc2Sc2ccccc21 (stereo unspecified) ... Compound NOT metabolized
CC(C)c1nc(CN(C)C(=O)N[C@H](C(=O)N[C@@H](Cc2ccccc2)C[C@H](O)[C@H](Cc2ccccc2)NC(=O)OCc2cncs2)C(C)C)cs1 ... Compound NOT metabolized
CC(=O)OCC(=O)[C@@]1(O)[C@@H](C)C[C@H]2[C@@H]3CCC4=CC(=O)C=C[C@]4(C)[C@@]3(F)[C@@H](O)C[C@@]21C [BETAMETHASONE ACETATE] ... Compound NOT metabolized
CNC(=C[N+](=O)[O-])NCCSCc1csc(CN(C)C)n1 ... Compound metabolized

(Q) Could you share which Bacterial Biotransformation value was measured for CC(C)NCC(O)COc1ccc(COCCOC(C)C)cc1.CC(C)NCC(O)COc1ccc(COCCOC(C)C)cc1.O=C(O)/C=C/C(=O)O (stereo unspecified) [BISOPROLOL FUMARATE] ?
(A) Compound NOT metabolized

(Q) Data request, read-out Bacterial Biotransformation, for O=C1NCC2(CCN(CCc3ccccc3)CC2)O1 [FENSPIRIDE]
(A) Compound NOT metabolized

(Q) Fill in the blank: the reported Bacterial Biotransformation of CC(=O)Oc1ccc(C(c2ccc(OC(C)=O)cc2)c2ccccn2)cc1 is ____.
(A) Compound metabolized

###

# test.description: The drug is tested on Enterobacter cancerogenus strain: ATCC35316 for biotransformation. The drug concentrations were measured before and after a 12-h incubation by liquid-chromatography-coupled mass spectrometry (LC–MS)
# condition.label: 2 µM
assay.metric: Bacterial Biotransformation

In the examples that follow, each entry is paired with its recorded Bacterial Biotransformation.
CCCc1nc2c(C)cc(-c3nc4ccccc4n3C)cc2n1Cc1ccc(-c2ccccc2C(=O)O)cc1 ... Compound NOT metabolized
Nc1c2c(nc3ccccc13)CCCC2 ... Compound NOT metabolized
CCN(CC)C(=O)C1(c2ccccc2)CC1CN (stereo unspecified) ... Compound NOT metabolized
CC(C)(C#N)c1cc(Cn2cncn2)cc(C(C)(C)C#N)c1 ... Compound NOT metabolized
CC(C(=O)O)c1ccc2c(c1)Cc1cccnc1O2 (stereo unspecified) ... Compound NOT metabolized

(Q) Suppose we examine the molecule C#C[C@]1(O)CC[C@H]2[C@@H]3CCC4=Cc5oncc5C[C@]4(C)[C@H]3CC[C@@]21C ; what Bacterial Biotransformation value has been reported?
(A) Compound metabolized

(Q) # lookup: Bacterial Biotransformation of CCCCC(=O)O[C@]1(C(=O)CO)[C@@H](C)C[C@H]2[C@@H]3CCC4=CC(=O)C=C[C@]4(C)[C@@]3(F)[C@@H](O)C[C@@]21C [BETAMETHASONE VALERATE]
(A) Compound NOT metabolized

(Q) # get_value(readout='Bacterial Biotransformation', item= CC(CN(C)C)CN1c2ccccc2CCc2ccccc21.O=C(O)/C=C\C(=O)O (stereo unspecified) [TRIMIPRAMINE MALEATE] )
(A) Compound NOT metabolized

(Q) Which measured Bacterial Biotransformation value corresponds to OCCOCCN1CCN(C2=Nc3ccccc3Sc3ccccc32)CC1 ?
(A) Compound NOT metabolized

(Q) Entry CCCN(CCC)CCc1cccc2c1CC(=O)N2 has what Bacterial Biotransformation?
(A) Compound NOT metabolized

(Q) Field request: Bacterial Biotransformation | item: O=C(O)CCc1nc(-c2ccccc2)c(-c2ccccc2)o1
(A) Compound NOT metabolized

(Q) Returns the measured Bacterial Biotransformation for the input molecule. Input: CN1CCN(C2=Nc3cc(Cl)ccc3Nc3ccccc32)CC1
(A) Compound NOT metabolized

(Q) I have this molecule here, Cc1cc2c(cc1S(N)(=O)=O)S(=O)(=O)CCC2 , and I need its recorded Bacterial Biotransformation.
(A) Compound NOT metabolized

(Q) Sample COc1ccc2[nH]c([S+]([O-])Cc3ncc(C)c(OC)c3C)nc2n1 (stereo unspecified) — what was its Bacterial Biotransformation?
(A) Compound metabolized

(Q) Recorded Bacterial Biotransformation of N#Cc1ccc2[nH]cc(CCCCN3CCN(c4ccc5oc(C(N)=O)cc5c4)CC3)c2c1 , please.
(A) Compound NOT metabolized

(Q) What does the data say about its Bacterial Biotransformation? Entry: CNNCc1ccc(C(=O)NC(C)C)cc1
(A) Compound NOT metabolized

(Q) Field request: Bacterial Biotransformation | item: CC(C)NCC(O)COc1ccc(CC(N)=O)cc1 (stereo unspecified)
(A) Compound NOT metabolized

(Q) // Bacterial Biotransformation lookup, key: CCc1oc2ccccc2c1C(=O)c1cc(Br)c(O)c(Br)c1
(A) Compound NOT metabolized

(Q) GET /values?readout=Bacterial Biotransformation&item= CC(C)OC(=O)C(C)(C)Oc1ccc(C(=O)c2ccc(Cl)cc2)cc1 [FENOFIBRATE]
(A) Compound NOT metabolized

(Q) Tell me the measured Bacterial Biotransformation of CCc1nc(N)nc(N)c1-c1ccc(Cl)cc1 , please.
(A) Compound NOT metabolized

(Q) Can you share its Bacterial Biotransformation? I mean this molecule: CCC(COC(=O)c1cc(OC)c(OC)c(OC)c1)(c1ccccc1)N(C)C.O=C(O)/C=C\C(=O)O (stereo unspecified)
(A) Compound metabolized

(Q) Reported Bacterial Biotransformation, molecule COc1ccnc(C[S+]([O-])c2nc3ccc(OC(F)F)cc3[nH]2)c1OC (stereo unspecified) : ____
(A) Compound metabolized

(Q) # Bacterial Biotransformation lookup, item CC(C)c1nc(N(C)S(C)(=O)=O)nc(-c2ccc(F)cc2)c1/C=C/[C@@H](O)C[C@@H](O)CC(=O)[O-].CC(C)c1nc(N(C)S(C)(=O)=O)nc(-c2ccc(F)cc2)c1/C=C/[C@@H](O)C[C@@H](O)CC(=O)[O-].[Ca+2]
(A) Compound NOT metabolized

###

# test.description: The drug is tested on Clostridium ramosum strain: DSM1402 for biotransformation. The drug concentrations were measured before and after a 12-h incubation by liquid-chromatography-coupled mass spectrometry (LC–MS)
# condition.label: thomasclavelia ramosa, 2 µM
assay.metric: Bacterial Biotransformation

Here's what some known entries look like.
O=C(NC(Cc1cc(=O)[nH]c2ccccc12)C(=O)O)c1ccc(Cl)cc1 (stereo not drawn) [REBAMIPIDE] ... Compound NOT metabolized
Br.CN1CCC[C@@H]1Cc1c[nH]c2ccc(CCS(=O)(=O)c3ccccc3)cc12 [ELETRIPTAN HYDROBROMIDE] ... Compound NOT metabolized
Cc1cn([C@H]2C[C@H](N=[N+]=[N-])[C@@H](CO)O2)c(=O)[nH]c1=O ... Compound NOT metabolized
CCN(CC)CCNC(=O)c1cc(Cl)c(N)cc1OC [METOCLOPRAMIDE] ... Compound NOT metabolized
COc1ccc(/C=C/C(=O)Nc2ccccc2C(=O)O)cc1OC ... Compound NOT metabolized

(Q) Recorded Bacterial Biotransformation for O=C(O[C@H]1C[C@H]2CC[C@@H](C1)[N+]21CCCC1)C(O)(c1ccccc1)c1ccccc1.[Cl-] [TROSPIUM CHLORIDE] , please?
(A) Compound NOT metabolized

(Q) Give the measured Bacterial Biotransformation of CN1C(C(=O)Nc2ccccn2)=C(O)c2sccc2S1(=O)=O .
(A) Compound NOT metabolized

###

# test.description: The drug is tested on Clostridium scindens strain: ATCC35704 for biotransformation. The drug concentrations were measured before and after a 12-h incubation by liquid-chromatography-coupled mass spectrometry (LC–MS)
# condition.label: 2 µM
assay.metric: Bacterial Biotransformation

Previously resolved entries follow.
CC1Cc2ccccc2N1NC(=O)c1ccc(Cl)c(S(N)(=O)=O)c1 (centres undefined) [INDAPAMIDE] ... Compound NOT metabolized
CC(=O)OCC(CCn1cnc2cnc(N)nc21)COC(C)=O ... Compound NOT metabolized
CC(C)(C(=O)O)c1ccc(C(O)CCCN2CCC(C(O)(c3ccccc3)c3ccccc3)CC2)cc1 (centres undefined) [FEXOFENADINE] ... Compound NOT metabolized
Cc1ccccc1C(OCCN(C)C)c1ccccc1.O=C(O)CC(O)(CC(=O)O)C(=O)O (centres undefined) [ORPHENADRINE CITRATE] ... Compound NOT metabolized

(Q) Returns the measured Bacterial Biotransformation for the input compound. Input: CS(=O)(=O)O.O.O.O.O=C1Cc2cc(CCN3CCN(c4nsc5ccccc45)CC3)c(Cl)cc2N1 [ZIPRASIDONE MESYLATE]
(A) Compound NOT metabolized

(Q) Can you look up the measured Bacterial Biotransformation of COc1cc2nc(N(C)CCCNC(=O)C3CCCO3)nc(N)c2cc1OC (centres undefined) for me?
(A) Compound NOT metabolized
